Molecular target: aldosterone synthase (CYP11B2) (Macaca fascicularis, UniProt A0A2K5UPL9)
Sequence (A0A2K5UPL9 1-503): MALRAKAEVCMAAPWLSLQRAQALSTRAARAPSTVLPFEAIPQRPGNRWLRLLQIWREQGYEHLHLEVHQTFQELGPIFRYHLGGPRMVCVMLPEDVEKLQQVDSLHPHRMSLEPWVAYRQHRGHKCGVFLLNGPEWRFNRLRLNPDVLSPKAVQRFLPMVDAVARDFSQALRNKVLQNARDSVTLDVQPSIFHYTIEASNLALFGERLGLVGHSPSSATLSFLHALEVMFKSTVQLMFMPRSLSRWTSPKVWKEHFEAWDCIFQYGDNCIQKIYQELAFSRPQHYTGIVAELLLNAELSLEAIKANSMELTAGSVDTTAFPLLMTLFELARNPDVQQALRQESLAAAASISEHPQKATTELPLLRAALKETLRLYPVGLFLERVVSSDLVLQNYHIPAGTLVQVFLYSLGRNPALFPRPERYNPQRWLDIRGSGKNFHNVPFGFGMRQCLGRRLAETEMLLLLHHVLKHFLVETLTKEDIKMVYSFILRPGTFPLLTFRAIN
pIC50: −log10 of the molar value. Structures can show the parent of a compound that is named as a salt.
REPORTED_PROPERTY: pIC50

N#Cc1ccc(Cc2onc3c2C(=O)CC(CC2CC2)C3)cc1 (stereo not shown); 7.13
CC1(C)CC(=O)c2c(noc2Cc2ccc(C(N)=O)cc2)C1; 7.00
CC(C)C1CC(=O)c2c(noc2CC2CCNCC2)C1 (stereo not shown) [Cpd 14, hydrochloride]; 5.62
